# Experimental Target: Cyclin-dependent kinase 2/G1/S-specific cyclin-E1 (Homo sapiens, UniProt P24941)
# Test: Kinase Inhibition Assay
Flag rule - IC50 less than 30 nM flags True; the remaining entries get False.

**Q:** Consider the molecule `COc1ccc(-c2[nH]nc3c2C(=O)c2c(NC(=O)NNC(=O)c4ccccc4)cccc2-3)cc1` . Is its IC50 strictly less than 30 nM?
**A:** True

**Q:** Would you kindly repeat that for `COc1ccc(-c2[nH]nc3c2C(=O)c2c(NC(=O)NNC(=O)c4ccncc4)cccc2-3)cc1` ?
**A:** True

**Q:** Could you do the same for `COc1ccc(-c2[nH]nc3c2C(=O)c2c(NC(=O)NNC(=O)c4ccc5ccccc5c4)cccc2-3)cc1` , please?
**A:** False

**Q:** And then `COc1ccc(-c2[nH]nc3c2C(=O)c2c(NC(=O)NNC(=O)C(N)=O)cccc2-3)cc1` , what is it?
**A:** False

**Q:** Next: `COc1ccc(-c2[nH]nc3c2C(=O)c2c(NC(=O)NNC(=O)c4cccc(N)c4)cccc2-3)cc1`
**A:** True

**Q:** Also `COc1ccc(-c2[nH]nc3c2C(=O)c2c(NC(=O)NNC(C)=O)cccc2-3)cc1` , if possible.
**A:** False

**Q:** Param item: `COc1ccc(-c2[nH]nc3c2C(=O)c2c(NC(=O)NNC(=O)c4cccnc4)cccc2-3)cc1`
**A:** True

**Q:** Similarly, `COc1ccc(-c2[nH]nc3c2C(=O)c2c(NC(=O)NNC(=O)Cc4ccccc4)cccc2-3)cc1` ?
**A:** False

**Q:** Follow-up item: `COc1ccc(-c2[nH]nc3c2C(=O)c2c(NC(=O)NNC(=O)c4ccc(O)cc4O)cccc2-3)cc1`
**A:** True

###

# Experimental Target: Cyclin-dependent kinase 4/G1/S-specific cyclin-D1 (Homo sapiens)
# Sequence (P11802 whole entry): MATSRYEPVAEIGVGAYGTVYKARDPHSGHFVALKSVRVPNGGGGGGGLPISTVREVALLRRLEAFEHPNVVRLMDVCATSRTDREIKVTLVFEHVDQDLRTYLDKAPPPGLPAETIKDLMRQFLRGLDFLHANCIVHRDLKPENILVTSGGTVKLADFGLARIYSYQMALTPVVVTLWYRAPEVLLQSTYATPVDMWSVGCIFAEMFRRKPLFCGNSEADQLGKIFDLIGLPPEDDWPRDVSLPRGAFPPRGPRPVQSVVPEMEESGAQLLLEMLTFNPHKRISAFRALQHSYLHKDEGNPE
# Sequence (P24385 whole entry, further chain): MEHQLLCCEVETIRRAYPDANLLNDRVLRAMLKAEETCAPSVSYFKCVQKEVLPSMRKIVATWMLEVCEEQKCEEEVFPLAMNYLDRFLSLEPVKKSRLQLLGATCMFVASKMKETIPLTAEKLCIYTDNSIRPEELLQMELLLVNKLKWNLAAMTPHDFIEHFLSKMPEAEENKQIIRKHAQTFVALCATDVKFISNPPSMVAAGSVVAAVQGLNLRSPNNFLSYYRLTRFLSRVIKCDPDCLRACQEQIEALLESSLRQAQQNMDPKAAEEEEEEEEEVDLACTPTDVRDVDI
# Test: Kinase Inhibition Assay
Please provide measured pIC50 for the entries that follow.
Formally, pIC50 is defined as -log10 of the concentration c, with c in mol/L.

**Q:** Bench note: what pIC50 did `COc1ccc(-c2[nH]nc3c2C(=O)c2c(NC(=O)NNC(=O)c4cc(Cl)ccc4Cl)cccc2-3)cc1` show?
**A:** 7.55

**Q:** One more compound: `COc1ccc(-c2[nH]nc3c2C(=O)c2c(NC(=O)NNC(=O)c4cc(OC)cc(OC)c4)cccc2-3)cc1`
**A:** 7.62

**Q:** Could you do the same for `COc1ccc(C(=O)NNC(=O)Nc2cccc3c2C(=O)c2c(-c4ccc(OC)cc4)n[nH]c2-3)cc1` , please?
**A:** 7.96

**Q:** What about `COc1ccc(-c2[nH]nc3c2C(=O)c2c(NC(=O)NNC(C)=O)cccc2-3)cc1` ?
**A:** 7.24

**Q:** Please give the result for `COc1ccc(-c2[nH]nc3c2C(=O)c2c(NC(=O)NNC(=O)c4ccc5ccccc5c4)cccc2-3)cc1` too.
**A:** 7.89

**Q:** Same again, this time with `COc1ccc(-c2[nH]nc3c2C(=O)c2c(NC(=O)NNC(=O)c4cc(N)cc(N)c4)cccc2-3)cc1`
**A:** 7.80

**Q:** Continue with `COc1ccc(-c2[nH]nc3c2C(=O)c2c(NC(=O)NNC(=O)c4ccc(O)cc4O)cccc2-3)cc1`
**A:** 7.92

**Q:** Try this compound too: `COc1ccc(-c2[nH]nc3c2C(=O)c2c(NC(=O)NNC(=O)Cc4ccccc4)cccc2-3)cc1`
**A:** 7.57

Ref: BindingDB's records for doi:10.1016/j.bmcl.2004.09.023
